# Test system: UACC-62 melanoma
# assayDetails: NCI-60 one-dose screen, 48 h
# recordedConditions: 10 µM unless noted
The panel holds about 83,000 compounds, 20% with a hit somewhere; the sample as a whole holds those more often. Activity calls are given as the source filed them. The calls were made as follows: active = growth percent below 10; inactive = the rest.
// allowed return values: active, inactive

Please review the following examples before continuing.
>>> assignedlabel("CS(=O)(=O)Nc1cc(-c2ccc3ncnc(Nc4ccc5c(cnn5Cc5ccc(F)cc5)c4)c3c2)cnc1Cl")
"inactive"
>>> assignedlabel("CCCc1c(OC(=O)c2ccccc2)nc2[nH]c(=O)sc2c1C")
"inactive"

From here, focus on the item given below.
**Q:** // param item: Cc1ccc2c(n1)C(=O)C(Br)=C(C1CCCC1)C2=O ; yields the recorded call
**A:** inactive
